Data origin, for the record: patent US20210230570

- measuredTarget: Factor X (FX), P00742
- Sequence (P00742 whole entry, looked up): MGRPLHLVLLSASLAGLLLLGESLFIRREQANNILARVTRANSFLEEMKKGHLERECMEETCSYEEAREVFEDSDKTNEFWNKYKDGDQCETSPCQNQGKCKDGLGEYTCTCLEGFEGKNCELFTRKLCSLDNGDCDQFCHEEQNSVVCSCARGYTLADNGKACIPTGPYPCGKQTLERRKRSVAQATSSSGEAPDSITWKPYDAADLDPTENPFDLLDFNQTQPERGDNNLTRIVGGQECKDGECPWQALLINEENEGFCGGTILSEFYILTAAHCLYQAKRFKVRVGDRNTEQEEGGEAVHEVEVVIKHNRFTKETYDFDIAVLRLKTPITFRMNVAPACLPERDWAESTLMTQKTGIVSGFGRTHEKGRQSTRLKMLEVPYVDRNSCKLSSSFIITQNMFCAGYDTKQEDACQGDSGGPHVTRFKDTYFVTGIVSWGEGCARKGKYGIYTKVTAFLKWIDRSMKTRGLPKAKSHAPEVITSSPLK
readout: kcat of FX activation by FIXa in the Xase complex (FVIIIa, PC/PS vesicles, Ca2+) (s⁻¹)
One number for each entry, in s⁻¹.

| protein | testResult |
| --- | --- |
| FIXa-R318Y/R338E/T412A (protein) chain 1: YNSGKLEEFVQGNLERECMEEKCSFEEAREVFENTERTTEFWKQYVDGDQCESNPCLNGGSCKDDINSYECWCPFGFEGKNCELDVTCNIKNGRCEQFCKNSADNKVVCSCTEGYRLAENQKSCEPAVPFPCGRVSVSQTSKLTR chain 2: VVGGEDAKPGQFPWQVVLNGKVDAFCGGSIVNEKWIVTAAHCVETGVKITVVAGEHNIEETEHTEQKRNVIRIIPHHNYNAAINKYNHDIALLELDEPLVLNSYVTPICIADKEYTNIFLKFGSGYVSGWGRVFHKGYSALVLQYLRVPLVDRATCLESTKFTIYNNMFCAGFHEGGRDSCQGDSGGPHVTEVEGTSFLTGIISWGEECAMKGKYGIYTKVSRYVNWIKEKAKLT | 7 |

Could you now consider this next protein?
In plain terms, FIXa-R318Y/R338E/E410N/T412V (protein) chain 1: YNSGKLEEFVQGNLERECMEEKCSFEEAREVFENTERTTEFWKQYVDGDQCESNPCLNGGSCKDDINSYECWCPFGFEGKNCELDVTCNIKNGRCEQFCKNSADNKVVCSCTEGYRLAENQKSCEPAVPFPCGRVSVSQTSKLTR chain 2: VVGGEDAKPGQFPWQVVLNGKVDAFCGGSIVNEKWIVTAAHCVETGVKITVVAGEHNIEETEHTEQKRNVIRIIPHHNYNAAINKYNHDIALLELDEPLVLNSYVTPICIADKEYTNIFLKFGSGYVSGWGRVFHKGYSALVLQYLRVPLVDRATCLESTKFTIYNNMFCAGFHEGGRDSCQGDSGGPHVTEVEGTSFLTGIISWGEECAMKGKYGIYTKVSRYVNWIKNKVKLT has a documented kcat of FX activation by FIXa in the Xase complex (FVIIIa, PC/PS vesicles, Ca2+) of 5.2
